experiment: SPR binding of NVA1309 to immobilized P4-derived peptides, RU400 as % of peptide P4; conditions: mean of 0.5, 1 and 2 mM NVA1309; P4=100%; Example 6
Measure: % BINDING (RU400) mean (%)
Numbers only here, please. The scale is %.

| Sequence Chain | Measure | Test Result |
| --- | --- | --- |
| IKAKLEEAIAQAGGGC (Peptide P12, P4 analogue - polar side chains A-substituted + GGGC anchor) | % BINDING (RU400) mean | 15.3 |

What value of % BINDING (RU400) mean has been recorded for this entry: IAAALEETITQAGGGC (Peptide P10, P4 analogue - positively charged side chains A-substituted + GGGC anchor)
4

What does the data say about its % BINDING (RU400) mean? Entry: ETITQARYSETLKPGGGC (Peptide P6, carboxy-terminal VGGC_a2 region (IV) + GGGC anchor) [C-terminal P4 extension + GGGC anchor]
8.3

Would you kindly share the measured % BINDING (RU400) mean for AQTITEELKAKIGGGC (Peptide P8, Inverse peptide P4 + GGGC anchor) ?
2.3

Quick one: % BINDING (RU400) mean for IKAKLAATITQAGGGC (Peptide P11, P4 analogue - negatively charged side chains A-substituted + GGGC anchor) ?
23.3

Name the reported % BINDING (RU400) mean value associated with the sequence LRVRIDDSLSNVGGGC (Peptide P9, P4 analogue - all aa substituted by most similar ones + GGGC anchor)
1.3

// lookup % BINDING (RU400) mean for IKAKLEETITQAGGGC (Peptide P4, carboxy-terminal VGGC_a2 region (II) + GGGC anchor) [carboxy-terminal VGGC_α2 region (II) + GGGC anchor, positive control]
100
